# System: M14
# TEST DESCRIPTION: NCI tumour cell line growth inhibition, 48 h
Activity calls are given as the source filed them. Rule as the data show it: active = GI50 up to about 1.1 µM and inactive = higher.
RECORDED METRIC: GI50

Here are 3 compounds together with their reported answers.
COMPOUND: COc1ccccc1N(CN1C(=O)CCC1C(=O)O)C(C)=O (stereo unspecified)
GI50: > 100 µM (inactive)
//
COMPOUND: CNc1cccc2c1C(C)C[C@]1(C)C(=O)Nc3ccccc3[C@H]21 (stereo partly specified)
GI50: 20.2 µM (inactive)
//
COMPOUND: CC#CC#C/C=C1\C=CC2(OC=CC2O)O1 (stereo unspecified)
GI50: > 17.8 µM (inactive)

Could you tell me GI50 for each of these compounds? They are listed below.
1. COc1ccc(/C=C/C(=O)c2cc(C(C)(C)C)c(O)c(C(C)(C)C)c2)cc1OC
2. COc1ccccc1NC(=O)C1=C(C)NC(C)=C(C(=O)Nc2ccccc2OC)C1c1ccc(C)cc1
3. Cc1ccc(NC(=O)/C(=N\NC(N)=S)C(C#N)c2ccccc2C)cc1C (stereo unspecified)
4. C=CC[C@H](C[C@H](C[C@H](C[C@H](C[C@H](C[C@H](C[C@H](C[C@H](C[C@H](C[C@H](CCCCC)OC)OC)OC)OC)OC)OC)OC)OC)OC)OC
5. Clc1ccc2c(Cl)ncnc2c1
6. CN(C)N1C(=O)SCC(c2ccccc2)(c2ccccc2)C1=O
7. CCOc1ccc(/C=C/c2cc(OC)c(OC)c(OC)c2)cc1
8. c1ccc(CSCCc2ccncc2)cc1

Result:
25.3 µM (inactive)
64.6 µM (inactive)
> 100 µM (inactive)
> 100 µM (inactive)
> 100 µM (inactive)
> 100 µM (inactive)
0.841 µM (active)
> 100 µM (inactive)

Recorded values, source ChEMBL document CHEMBL1201862.
